- Test system: HepG2
- Assay: Cytotoxicity against human HepG2 cells after 72 hrs by SRB assay
- Format: functional, cell-based
- Study Conditions: HepG2, 72 h
Observation Type: pIC50
pIC50 is a log-scale quantity: -log10 of the concentration expressed in molar.

Before answering, review these 8 worked examples.
>>> reading("CC(C)(C)OC(=O)O[C@H]1C[C@H](n2cc(F)c(=O)[nH]c2=O)O[C@@H]1CO")
4.09
>>> reading("COC(=O)[C@H](C)NP(=O)(OC[C@H]1O[C@@H](n2cc(F)c(=O)[nH]c2=O)C[C@@H]1O)Oc1ccc(Cl)cc1 (stereo partly specified)")
5.18
>>> reading("CCNP(=O)(OC[C@H]1O[C@@H](n2cc(F)c(=O)[nH]c2=O)C[C@@H]1O)Oc1ccc(Cl)cc1 (stereo partly specified)")
5.27
>>> reading("CCNP(=O)(OC[C@H]1O[C@@H](n2cc(F)c(=O)[nH]c2=O)C[C@@H]1OC(=O)OC(C)(C)C)Oc1ccc(Cl)cc1 (stereo partly specified)")
5.37
>>> reading("CNP(=O)(OC[C@H]1O[C@@H](n2cc(F)c(=O)[nH]c2=O)C[C@@H]1O)Oc1ccc(Cl)cc1 (stereo partly specified)")
5.03
>>> reading("[N-]=[N+]=NCCCNP(=O)(OC[C@H]1O[C@@H](n2cc(F)c(=O)[nH]c2=O)C[C@@H]1O)Oc1ccc(Cl)cc1 (stereo partly specified)")
4.65
>>> reading("C#CCNP(=O)(OC[C@H]1O[C@@H](n2cc(F)c(=O)[nH]c2=O)C[C@@H]1O)Oc1ccc(Cl)cc1 (stereo partly specified)")
4.61
>>> reading("O=c1[nH]c(=O)n([C@H]2C[C@H](O)[C@@H](CO)O2)cc1F")
5.05

Request: Which pIC50 value is on record for CC(C)(C)OC(=O)O[C@H]1C[C@H](n2cc(F)c(=O)[nH]c2=O)O[C@@H]1COP(=O)(NCCCCN=[N+]=[N-])Oc1ccc(Cl)cc1 (stereo partly specified) ?
Result: 4.23

Request: Which pIC50 value is on record for O=c1[nH]c(=O)n([C@H]2C[C@H](O)[C@@H](COP(=O)(NCC(F)(F)F)Oc3ccc(Cl)cc3)O2)cc1F (stereo partly specified) ?
Result: 5.46

###

Entries and their IC50
- Tested on: HeLa
- Assay: Cytotoxicity against human HeLa cells after 72 hrs by SRB assay
- Format: functional, cell-based
Give a bare numeral; the unit µM is implied.

>>> reading("CCNP(=O)(OC[C@H]1O[C@@H](n2cc(F)c(=O)[nH]c2=O)C[C@@H]1O)Oc1ccc(Cl)cc1 (stereo not given in full)")
8.19
>>> reading("C=CCNP(=O)(OC[C@H]1O[C@@H](n2cc(F)c(=O)[nH]c2=O)C[C@@H]1OC(=O)OC(C)(C)C)Oc1ccc(Cl)cc1 (stereo not given in full)")
19.1

Request: Which IC50 value is on record for Oc1ccc(Cl)cc1 ?
Result: 1680

Request: Which IC50 value is on record for CC(C)(C)OC(=O)O[C@H]1C[C@H](n2cc(F)c(=O)[nH]c2=O)O[C@@H]1CO ?
Result: 63.5

Request: Which IC50 value is on record for COC(=O)[C@H](C)NP(=O)(OC[C@H]1O[C@@H](n2cc(F)c(=O)[nH]c2=O)C[C@@H]1OC(=O)OC(C)(C)C)Oc1ccccc1 (stereo not given in full) ?
Result: 8.34

Request: Which IC50 value is on record for C=CCNP(=O)(OC[C@H]1O[C@@H](n2cc(F)c(=O)[nH]c2=O)C[C@@H]1O)Oc1ccc(Cl)cc1 (stereo not given in full) ?
Result: 89.3

###

Entries and their IC50
- Test system: HepG2
- Assay: Cytotoxicity against human HepG2 cells after 72 hrs by SRB assay
- Format: functional, cell-based
- Study Conditions: HepG2, 72 h
Give a bare numeral; the unit µM is implied.

>>> reading("CCCNP(=O)(OC[C@H]1O[C@@H](n2cc(F)c(=O)[nH]c2=O)C[C@@H]1OC(=O)OC(C)(C)C)Oc1ccc(Cl)cc1 (some centres not stated)")
26
>>> reading("C=CCNP(=O)(OC[C@H]1O[C@@H](n2cc(F)c(=O)[nH]c2=O)C[C@@H]1OC(=O)OC(C)(C)C)Oc1ccc(Cl)cc1 (some centres not stated)")
17
>>> reading("CC(C)(C)OC(=O)O[C@H]1C[C@H](n2cc(F)c(=O)[nH]c2=O)O[C@@H]1COP(=O)(NCC(F)(F)F)Oc1ccc(Cl)cc1 (some centres not stated)")
18.8
>>> reading("CNP(=O)(OC[C@H]1O[C@@H](n2cc(F)c(=O)[nH]c2=O)C[C@@H]1OC(=O)OC(C)(C)C)Oc1ccc(Cl)cc1 (some centres not stated)")
6.55
>>> reading("C=CCNP(=O)(OC[C@H]1O[C@@H](n2cc(F)c(=O)[nH]c2=O)C[C@@H]1O)Oc1ccc(Cl)cc1 (some centres not stated)")
96.7
>>> reading("Oc1ccc(Cl)cc1 [PARACHLOROPHENOL]")
1700

Now for another entry.
Request: Which IC50 value is on record for C#CCNP(=O)(OC[C@H]1O[C@@H](n2cc(F)c(=O)[nH]c2=O)C[C@@H]1OC(=O)OC(C)(C)C)Oc1ccc(Cl)cc1 (some centres not stated) ?
Result: 3.66

###

- Tested on: HepG2
- Assay: Cytotoxicity against human HepG2 cells after 72 hrs by SRB assay
- Assay type: functional, cell-based
- Study Conditions: HepG2, 72 h
Observation Type: pIC50
pIC50 is a log-scale quantity: -log10 of the concentration expressed in molar.

Before answering, review these 4 worked examples.
>>> reading("CC(C)(C)OC(=O)O[C@H]1C[C@H](n2cc(F)c(=O)[nH]c2=O)O[C@@H]1COP(=O)(NCCCN=[N+]=[N-])Oc1ccc(Cl)cc1 (stereo partly specified)")
4.33
>>> reading("O=c1[nH]cc(F)c(=O)[nH]1")
5.18
>>> reading("CCCCNP(=O)(OC[C@H]1O[C@@H](n2cc(F)c(=O)[nH]c2=O)C[C@@H]1OC(=O)OC(C)(C)C)Oc1ccc(Cl)cc1 (stereo partly specified)")
4.19
>>> reading("COC(=O)[C@H](C)NP(=O)(OC[C@H]1O[C@@H](n2cc(F)c(=O)[nH]c2=O)C[C@@H]1OC(=O)OC(C)(C)C)Oc1ccccc1 (stereo partly specified)")
5.03

Request: Which pIC50 value is on record for CCCNP(=O)(OC[C@H]1O[C@@H](n2cc(F)c(=O)[nH]c2=O)C[C@@H]1O)Oc1ccc(Cl)cc1 (stereo partly specified) ?
Result: 4.38

###

Entries and their pIC50
- System: HeLa
- Assay: Cytotoxicity against human HeLa cells after 72 hrs by SRB assay
- Format: functional, cell-based
pIC50 is a log-scale quantity: -log10 of the concentration expressed in molar.

Before answering, review these 5 worked examples.
>>> reading("CCNP(=O)(OC[C@H]1O[C@@H](n2cc(F)c(=O)[nH]c2=O)C[C@@H]1OC(=O)OC(C)(C)C)Oc1ccc(Cl)cc1 (some centres undefined)")
5.58
>>> reading("C#CCNP(=O)(OC[C@H]1O[C@@H](n2cc(F)c(=O)[nH]c2=O)C[C@@H]1OC(=O)OC(C)(C)C)Oc1ccc(Cl)cc1 (some centres undefined)")
5.36
>>> reading("CCCCNP(=O)(OC[C@H]1O[C@@H](n2cc(F)c(=O)[nH]c2=O)C[C@@H]1OC(=O)OC(C)(C)C)Oc1ccc(Cl)cc1 (some centres undefined)")
4.12
>>> reading("COC(=O)[C@H](C)NP(=O)(OC[C@H]1O[C@@H](n2cc(F)c(=O)[nH]c2=O)C[C@@H]1O)Oc1ccc(Cl)cc1 (some centres undefined)")
5.39
>>> reading("CC(C)(C)OC(=O)O[C@H]1C[C@H](n2cc(F)c(=O)[nH]c2=O)O[C@@H]1COP(=O)(NCCCCN=[N+]=[N-])Oc1ccc(Cl)cc1 (some centres undefined)")
4.44

Request: Which pIC50 value is on record for C#CCNP(=O)(OC[C@H]1O[C@@H](n2cc(F)c(=O)[nH]c2=O)C[C@@H]1O)Oc1ccc(Cl)cc1 (some centres undefined) ?
Result: 4.98

Request: Which pIC50 value is on record for COC(=O)[C@H](C)NP(=O)(OC[C@H]1O[C@@H](n2cc(F)c(=O)[nH]c2=O)C[C@@H]1OC(=O)OC(C)(C)C)Oc1ccc(Cl)cc1 (some centres undefined) ?
Result: 5.78

Request: Which pIC50 value is on record for CCCNP(=O)(OC[C@H]1O[C@@H](n2cc(F)c(=O)[nH]c2=O)C[C@@H]1OC(=O)OC(C)(C)C)Oc1ccc(Cl)cc1 (some centres undefined) ?
Result: 4.31

Hey, just so you know, these numbers are from ChEMBL document CHEMBL3784993.
